Experiment: Selectivity index, ratio of IC50 for cytotoxicity against human fibroblasts to IC50 for human HeLa cells
Assay type: toxicity, cell-based
Conditions: human fibroblasts versus HeLa cells, read-out: Selectivity Index
measured.endpoint: selectivity ratio
Respond using a number only.

Could you share which selectivity ratio value was measured for `COc1ccc(S(=O)(=O)N2Cc3ccccc3-c3sc(Br)cc32)cc1` ?
3.2

====

Assay: Selectivity index, ratio of IC50 for cytotoxicity against human fibroblasts to IC50 for human HCT-116 cells
Type: toxicity, cell-based
Settings: human fibroblasts versus HCT-116 cells, read-out: Selectivity Index
measured.endpoint: selectivity ratio
Respond using a number only.

Could you share which selectivity ratio value was measured for `COc1ccc(S(=O)(=O)N2Cc3ccccc3-c3sc(Br)cc32)cc1` ?
3.2
